Test system: CCRF-CEM leukemia
procedureSummary: NCI tumour cell line growth inhibition, 48 h
observationType: TGI

Examples with their reported TGI follow.
| compound | TGI |
| --- | --- |
| CCN1C[C@]2(C)CC[C@H](O)C34C1C(C[C@@H]32)[C@@]1(O)CC[C@H]2C[C@@H]4[C@@H]1[C@H]2O | > 100 µM |
| N#Cc1c(-c2ccc(Cl)cc2)c2c(n(C3OC(CO)C(O)C(O)C3O)c1=S)CCCC2 (stereo not given) | > 100 µM |

Query (compound): OC(CC1CCCCN1)c1ccc2c(c1)oc1ccccc12 (stereo not given) ; field requested: TGI
> 100 µM

Let us now turn to Cc1nnc(-c2ccc(C)c(-c3ccc(C(=O)Nc4cccc(C#N)c4)cc3)c2)o1
> 25 µM

Let us now turn to CCOC(=O)/C=C(\C(=O)OCC)n1cc(C)c(=O)n(Cc2cn(CCCCOC(C)=O)nn2)c1=O
5.58 µM

Let us now turn to Cc1cn(C2CC(OC(=O)c3ccc(Cl)cc3)C(COC(=O)c3ccc(Cl)cc3)O2)c(=O)[nH]c1=O (stereo not given)
> 100 µM

Let us now turn to CC(=O)Oc1c(C)c(-c2ccccc2)c(C)c(-c2ccccc2)c1C(=S)c1ccccc1
> 100 µM

Let us now turn to O=C(O)c1ccc(CN2CCC(CN[C@@H]3C[C@H]3c3ccccc3)CC2)cc1
> 100 µM

Let us now turn to O=C1C=C(Nc2ccccc2C(=O)CC(=O)C(=O)Nc2cccc([N+](=O)[O-])c2)c2ccccc2C1=O
87.8 µM

Let us now turn to Cc1n(CC(C)C)c2c([n+]1C)C(=O)c1ccccc1C2=O
27 µM

Let us now turn to COc1ccc(Cn2c3c(cc(OC(C)=O)c2=O)Cc2ccccc2-3)cc1
> 50 µM

Let us now turn to CC(=O)C1C(c2ccccc2)C2(C)OC(=O)C(C#N)C12C (stereo not given)
> 100 µM

Let us now turn to Nn1c(C23CC4CC(CC(C4)C2)C3)n[nH]c1=S
> 100 µM

Let us now turn to NC(=Nc1ccccc1Cl)c1ccccc1N
> 100 µM

Let us now turn to COc1cc(NS(=O)(=O)c2ccc(C)cc2)c2nccnc2c1
81.2 µM

Let us now turn to CN(C)C/C=C/C(=O)Nc1ccc(C(=O)N[C@@]2(C)CCC[C@@H](Nc3ncc(Cl)c(-c4c[nH]c5ccccc45)n3)C2)nc1
1.3 µM

Let us now turn to Cc1ccc(S(=O)(=O)OC2CC=CC2)cc1
> 100 µM

Let us now turn to CS(=O)(=O)CCNCc1coc(-c2ccc3ncnc(Nc4ccc(OCc5ccccc5)cc4)c3c2)c1
14.5 µM

Let us now turn to Cc1ccc(S(=O)(=O)Nc2cccc3c(=O)[nH]cnc23)cc1
> 100 µM

Let us now turn to N[C@H](C(=O)O)[C@@H]1CC(Cl)=NO1
700 µM

----------
Test system: HOP-92 NSCLC
procedureSummary: NCI tumour cell line growth inhibition, 48 h
# maps each entry to its TGI

Examples with their reported TGI follow.
| molecule | testSystem | TGI |
| --- | --- | --- |
| C=C1c2c(C)nn(-c3ccc(C#CCOC4OC(CO)C(O)C(O)C4O)cc3)c2N(C)C23C[C@H]1C1(C)c4c(C)nn(-c5ccc(C#CCOC6OC(CO)C(O)C(O)C6O)cc5)c4N(C)C(C)(C[C@H]12)C3 (some centres not stated) | HOP-92 NSCLC | 2.52 µM |
| CCCCCCCCn1ccc2cc(NC(=O)Cn3cc(CN4CCCCCC4)nn3)ccc21 | HOP-92 NSCLC | 2.61 µM |
| Cc1ccc2c(ccc(/C=C/c3ccc(O)c4ncccc34)[n+]2C)c1 | HOP-92 NSCLC | 31.1 µM |
| CCN1C(=O)c2ccc3c4c(ccc(c24)C1=O)C(=O)N(CCCNCc1ccccc1OC)C3=O | HOP-92 NSCLC | 5.5 µM |
| O=C1N/C(=C\[N+](=O)[O-])c2ccccc21 | HOP-92 NSCLC | > 100 µM |

Query (molecule): [N-]=[N+]=NCCCn1c2c(c3ccc([N+](=O)[O-])cc3c1=O)C(=O)c1ccccc1-2 ; field requested: TGI
> 100 µM

Let us now turn to CCCOC(=O)N[C@H]1CCc2c(Cl)c(OC)c(OC)c(OC)c2-c2ccc(SC)c(=O)cc21
4.65 µM

Source: PubChem BioAssay (NCI)
